Where do the numbers come from? From PubChem BioAssay (NCI).

- System: MDA-MB-468 breast
- Assay overview: NCI tumour cell line growth inhibition, 48 h
Recorded GI50 values for a group of compounds are listed next.
Measure: GI50

>>> experimental_result("CCOC(=O)c1cc(C(=O)c2cc(OC)cc(OC)c2)n2nc(C)ccc12")
"297 nM"
>>> experimental_result("COc1ccc([C@H]2[C@H](O)C(=O)N2c2cc(OC)c(OC)c(OC)c2)cc1")
"< 10 nM"
>>> experimental_result("COc1cc(/C=C/c2cc(/C=C/c3ccc(O)c(OC)c3)n(C(=O)Cc3ccccc3)n2)ccc1O")
"1170 nM"

* * *

- System: MDA-MB-468 breast
- Assay overview: NCI tumour cell line growth inhibition, 48 h; in the data active means GI50 below about 0.43 µM; inactive means the rest
Possible outcomes: active, inactive

>>> class("CC(=O)Oc1ccccc1C(=O)[Se]C(=NC1CCCCC1)NC1CCCCC1")
"inactive"
>>> class("O=C1/C(=C/c2ccccc2[N+](=O)[O-])Oc2ccc(O)cc21")
"inactive"
>>> class("Cc1ccc(N(CC(=O)Nc2ccc(S(=O)(=O)NC3CCN(C)CC3)cc2)S(=O)(=O)c2ccc(Cl)cc2)cc1")
"inactive"
>>> class("CCC(=O)OCC1OC(n2cnc3c(=S)nc(N)[nH]c32)C(OC(=O)CC)C1OC(=O)CC (centres undefined)")
"inactive"
>>> class("COc1ccc(-c2cc(C(=O)N3N=C(c4ccc(N)cc4)CC3c3ccc(Cl)cc3)c3ccccc3n2)cc1 (centres undefined)")
"inactive"
>>> class("CCCCc1ccc(NS(=O)(=O)c2cc3c4c(c2)CCN4C(=O)CC3)cc1")
"inactive"
>>> class("O=[N+]([O-])c1cc([N+](=O)[O-])c(NN=C(c2ccc(O)cc2)c2ccc(O)cc2)cc1Cl")
"active"
>>> class("CC(c1ccccc1)N1C(=O)CSC1=S (centres undefined)")
"active"
>>> class("Cc1ccccc1[C@H]1C(C(=O)c2ccc(Cl)cc2)C2(N[C@@H]1c1ccccc1)C(=O)Nc1ccc(Cl)cc12 (some centres undefined)")
"inactive"
